Examples of binders with documented peptide exchange yield follow.
Test Target: T1, HLA-A*03:01 (human)
T1 construct: MHC class I monomer first loaded with a UV-sensitive peptide that is cleaved by UV irradiation and exchanged for the test peptide; captured on streptavidin plates; also called peptide-receptive MHC molecules
Test Description: UV-ligand exchange, anti-b2m ELISA; peptide exchange yield grade (>10% +, >20% ++, >50% +++, >75% ++++)

[[record]]
binder = "RLAVSTRGK"
assay_endpoint = "peptide exchange yield"
result = "> 75%"

[[record]]
binder = "VVYDTMIEK"
assay_endpoint = "peptide exchange yield"
result = "50 to 75%"


Exercise: State the recorded peptide exchange yield for this entry: ILDSSLLK
Key: 20 to 50%

Exercise: I would be grateful if you could share the reported peptide exchange yield for SSFRPLLSK .
Key: > 75%

Exercise: Value lookup for peptide exchange yield; key = KINPTASLK
Key: 50 to 75%

Exercise: Given HSAGIFSMY , state its recorded peptide exchange yield.
Key: 20 to 50%

Exercise: Reported peptide exchange yield for TVFVELWLK : what is it?
Key: 20 to 50%

Exercise: Look up peptide exchange yield: KILDRVLSRY
Key: > 75%

Exercise: // peptide exchange yield lookup, key: KLYPQCLQK
Key: > 75%
